B1: scFv; the commonest letter at each place (parent)
chain 1: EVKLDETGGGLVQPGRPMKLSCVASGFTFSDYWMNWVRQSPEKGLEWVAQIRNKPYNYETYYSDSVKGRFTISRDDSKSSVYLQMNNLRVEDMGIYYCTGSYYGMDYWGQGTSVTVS
chain 2: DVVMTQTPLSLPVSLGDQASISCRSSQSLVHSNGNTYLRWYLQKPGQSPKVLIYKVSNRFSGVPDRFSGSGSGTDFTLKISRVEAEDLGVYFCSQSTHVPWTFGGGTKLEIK

# Variants of: B1
# assay-info: yeast surface expression (ratio to wild type); higher = more expressed
# condition-context: format: scFv 4-4-20, heavy + light
Measured yeast surface expression accompanies every entry in the list below.
readout-label: yeast surface expression

>  <mutation-key>
chain 1 T28Y N35S

>  <readout-label>
yeast surface expression

>  <measured-value>
0.691

$$$$
>  <mutation-key>
chain 1 Y102M M105F

>  <readout-label>
yeast surface expression

>  <measured-value>
0.995

$$$$
>  <mutation-key>
chain 1 W33T W36Y

>  <readout-label>
yeast surface expression

>  <measured-value>
0.79

$$$$
>  <mutation-key>
chain 1 D31P V37W

>  <readout-label>
yeast surface expression

>  <measured-value>
0.565

$$$$
>  <mutation-key>
chain 1 G100D G109H

>  <readout-label>
yeast surface expression

>  <measured-value>
0.602

$$$$
>  <mutation-key>
chain 1 S101N W108D

>  <readout-label>
yeast surface expression

>  <measured-value>
0.399

$$$$
>  <mutation-key>
chain 1 G104Q G109M

>  <readout-label>
yeast surface expression

>  <measured-value>
0.0981

$$$$
>  <mutation-key>
chain 1 Y107R G109H

>  <readout-label>
yeast surface expression

>  <measured-value>
0.277

$$$$
>  <mutation-key>
chain 1 F29Y

>  <readout-label>
yeast surface expression

>  <measured-value>
0.978

$$$$
>  <mutation-key>
chain 1 Y102A Y103K

>  <readout-label>
yeast surface expression

>  <measured-value>
1.15

$$$$
>  <mutation-key>
chain 1 G100N Y107V

>  <readout-label>
yeast surface expression

>  <measured-value>
0.691

$$$$
